Molecular target: OTU domain-containing protein 3 (Homo sapiens)
Experiment: Validation of screening hits, potency titration, in vitro enzymatic, OTU domain-containing protein 3 DUB inhibitors (AID 1645868)
Conditions: purified OTUD3, ubiquitin-rhodamine cleavage fluorescence, 2 h
Calls of active or inactive are those of the source.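 How the source made its calls: active means maximal percent inhibition of the deubiquitinase OTUD3 of at least 30% across the tested doses; inactive means the rest.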
Give your call using only these classes: active, inactive

// below: answered compounds
{"columns": ["Compound", "Target under test", "Assigned class"],
 "data": [
  ["CCc1nc2c(NC(=O)Nc3cccc(C(=O)OC)c3)cccn2n1", "OTU domain-containing protein 3 (Homo sapiens)", "inactive"],
  ["Cc1cccc(-n2ccnc(SCC(=O)Nc3ccc(Cl)cc3F)c2=O)c1", "OTU domain-containing protein 3 (Homo sapiens)", "active"],
  ["Cc1cccc(N2C(=O)/C(=C\\c3ccc4c(c3)OCCO4)c3ccccc3C2=O)c1", "OTU domain-containing protein 3 (Homo sapiens)", "inactive"],
  ["CNc1nc2c(c(=O)n1C)CN(C(=O)Nc1cccc3ccccc13)CC2", "OTU domain-containing protein 3 (Homo sapiens)", "inactive"],
  ["Cc1ccccc1Cc1nc(-c2ccc(=O)[nH]c2)no1", "OTU domain-containing protein 3 (Homo sapiens)", "inactive"],
  ["O=C(Cn1cnc2c(oc3ccccc32)c1=O)NCc1ccccc1Cl", "OTU domain-containing protein 3 (Homo sapiens)", "active"],
  ["O=c1c(OC2O[C@H](CO)[C@H](O)[C@H](O)[C@H]2O)c(-c2ccc(O)cc2)oc2cc(O)cc(O)c12 (stereo partly specified)", "OTU domain-containing protein 3 (Homo sapiens)", "active"],
  ["O=C1N(Cc2cccc(Cl)c2)CCN1c1ccc2c(c1)CCC2", "OTU domain-containing protein 3 (Homo sapiens)", "inactive"]
]}

Enquiry: Can you look up the reported call for CN1C(=O)COc2cc(-c3noc(C(=O)NC4CCCCCC4)n3)ccc21 for me?
Return: inactive

Enquiry: Can you look up the reported call for COc1cc(NC(=O)c2cc(-c3ccncc3)n(-c3ccc(F)cc3)n2)cc(OC)c1 for me?
Return: inactive

---

Biological target: OTU domain-containing protein 3 (Homo sapiens) (UniProt Q5T2D3)
Sequence (Q5T2D3 whole entry, looked up, the tested form may be a part): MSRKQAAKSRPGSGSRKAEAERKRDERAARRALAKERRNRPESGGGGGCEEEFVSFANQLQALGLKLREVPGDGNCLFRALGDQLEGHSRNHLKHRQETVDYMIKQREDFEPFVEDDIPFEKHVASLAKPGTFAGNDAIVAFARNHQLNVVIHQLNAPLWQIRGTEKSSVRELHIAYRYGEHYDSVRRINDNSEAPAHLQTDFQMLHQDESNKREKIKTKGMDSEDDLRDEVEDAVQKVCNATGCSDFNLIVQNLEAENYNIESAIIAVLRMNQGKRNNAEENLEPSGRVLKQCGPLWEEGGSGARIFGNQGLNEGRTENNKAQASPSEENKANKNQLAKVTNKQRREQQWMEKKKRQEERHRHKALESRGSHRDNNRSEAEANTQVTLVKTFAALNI
Assay: Validation of screening hits, potency titration, in vitro enzymatic, OTU domain-containing protein 3 DUB inhibitors (AID 1645868)
Conditions: purified OTUD3, ubiquitin-rhodamine cleavage fluorescence, 2 h
Calls of active or inactive are those of the source.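 The calls were made as follows: active = maximal percent inhibition of the deubiquitinase OTUD3 of at least 30% across the tested doses; inactive = the rest.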
Give your call using only these classes: active, inactive

// below: answered compounds
{"columns": ["Compound", "Assigned class"],
 "data": [
  ["c1ccc(CN2CCN(c3nc4ccccc4n4nnnc34)CC2)cc1", "inactive"],
  ["COc1ccccc1Nc1ncc(C(=O)NCCc2ccc(Cl)cc2)c2ccccc12", "active"],
  ["Cc1cc(C)cc(-n2cnc3cc(C(=O)NCCC4=CCCCC4)ccc32)c1", "inactive"],
  ["N#Cc1ccccc1Cn1c(=O)n(CCCCC(=O)NCCc2ccccc2)c(=O)c2ccccc21", "active"]
]}

Please find the next compound below.
Enquiry: Can you look up the reported call for CC1=C(C(=O)Nc2ccccc2C)C(c2ccc(OCc3ccccc3F)cc2)n2ncnc2N1 (stereo not given) for me?
Return: active

---

Biological target: OTU domain-containing protein 3 (Homo sapiens)
Test: Validation of screening hits, potency titration, in vitro enzymatic, OTU domain-containing protein 3 DUB inhibitors (AID 1645868)
Conditions: purified OTUD3, ubiquitin-rhodamine cleavage fluorescence, 2 h
Calls of active or inactive are those of the source.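 How the source made its calls: active means maximal percent inhibition of the deubiquitinase OTUD3 of at least 30% across the tested doses; inactive means the rest.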
Result type: IC50

Enquiry: // IC50 lookup, key: Cc1ccccc1Cn1ccc(NC(=O)c2noc(C)c2[N+](=O)[O-])n1
Return: > 50 µM (inactive)

Enquiry: // IC50 lookup, key: Cc1sc(-c2ccc(Cl)nc2)nc1OC(=O)c1ccc(F)cc1F
Return: > 50 µM (inactive)

Enquiry: // IC50 lookup, key: CCOc1cccc2sc(N(Cc3cccnc3)C(=O)CCc3ccccc3)nc12
Return: > 50 µM (inactive)

Enquiry: // IC50 lookup, key: O=S1(=O)CCN(Cc2cccnc2)c2c(F)nc(N3CCOCC3)c(F)c21
Return: > 50 µM (inactive)

Enquiry: // IC50 lookup, key: COc1ccccc1-c1nc(-c2cn(-c3ccc(C)cc3)nn2)no1
Return: > 50 µM (inactive)

Enquiry: // IC50 lookup, key: O=C(Nc1cccc(F)c1)c1ncoc1-c1ccco1
Return: > 50 µM (inactive)

Enquiry: // IC50 lookup, key: CC(=O)Nc1cc2cc(-n3cccc3)ccc2oc1=O
Return: > 50 µM (inactive)

Enquiry: // IC50 lookup, key: CC(=O)c1sc(NC(=O)c2ccccc2-c2ccc(C(F)(F)F)cc2)nc1C
Return: 41.7 µM

These data points were gathered from PubChem BioAssay AID1645868.
